Tested on: SpTbr T-box DNA-binding domain (GST fusion);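 note: protein at 200 nM in PBS on universal double-stranded arrays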
Sequence: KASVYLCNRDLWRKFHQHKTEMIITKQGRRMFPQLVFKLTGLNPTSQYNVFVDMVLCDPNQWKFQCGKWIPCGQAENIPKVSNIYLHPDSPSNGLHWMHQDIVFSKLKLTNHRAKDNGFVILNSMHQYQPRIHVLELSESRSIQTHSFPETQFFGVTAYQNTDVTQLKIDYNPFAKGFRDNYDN
Assay: PBM E-score of 8-mer (E-score (dimensionless, -0.5 to 0.5)); Tbr is Tbrain of the sea star Patiria miniata (Pm) or the sea urchin Strongylocentrotus purpuratus (Sp); higher = stronger binding preference
Details: the construct has about 5 more residues each side
Over roughly 33,000 sequences, “E-score (dimensionless, -0.5 to 0.5)” has its median near -0.046; the highest 2% begin near 0.36. The list comes from a sample in which the highest values are over-represented; it also holds close analogues and randomly drawn sequences.
Please provide measured PBM E-score of 8-mer for the entries that follow.
Simply state the number, no unit and no words.

# get_value(readout='PBM E-score of 8-mer', item= GAGACACA ) 0.15

Quick one: PBM E-score of 8-mer of CATGAATC ? 0.0324

What does the record list as PBM E-score of 8-mer for CCGACAAC ? 0.159

Please give the measured PBM E-score of 8-mer for this sequence: CTGACAAC 0.259

Fill blank: measured PBM E-score of 8-mer of the sequence ACTGTGAA is ____. 0.413

Can you look up the measured PBM E-score of 8-mer of GCTGTGGA for me? 0.151

Please report the recorded PBM E-score of 8-mer for GTGACAAC . 0.447

Name the reported PBM E-score of 8-mer value associated with the sequence GGCCACTA -0.0216

Item under review: CTTGTGAA . Reported PBM E-score of 8-mer? 0.353

I'd like to know its PBM E-score of 8-mer. The sequence in question is ACCGTCCG -0.0723

Sample CACTAGCG — what was its PBM E-score of 8-mer? 0.139

What value of measured PBM E-score of 8-mer is listed for ACCATAGC ? 0.0118

Sample GCGACAAC — what was its PBM E-score of 8-mer? 0.369

Quick one: PBM E-score of 8-mer of ATTCCCAA ? -0.227

Query: PBM E-score of 8-mer; subject: AGACCCAC 0.0705

What does the record list as PBM E-score of 8-mer for AATCTTCC ? -0.133

Endpoint output: PBM E-score of 8-mer of GCTCGCCA . Value? 0.231

What does the data say about its PBM E-score of 8-mer? Entry: GGAGCAAC 0.0231

For the sequence shown here, GAAGTAAA , give the reported PBM E-score of 8-mer. -0.281

Find the recorded PBM E-score of 8-mer belonging to ATAACCAC and report it. -0.138

Query (sequence): ATGACAAC ; field requested: PBM E-score of 8-mer 0.222

If you can, please state the reported PBM E-score of 8-mer value of CTGACAAA . 0.0345

Attribution: the supplement of paper PMC4166925
